- Measurement Notes: Pharmacokinetic study after intravenous administration to rats
- Format: in vivo, rat
- Measurement Conditions: rat, plasma, single dose 0.5 mg/kg
Property Measured: half-life (h)

> print(dat)
                                   molecule  quantitative.readout
1  Cc1c(Cc2ccc(F)cc2)c(=O)oc2cc(OCCOc3no[n+]([O-])c3S(=O)(=O)c3ccccc3)ccc12 [CY-14S-4A83]                     1

* * *

- Measurement Notes: Pharmacokinetic study after intravenous administration to rats
- Assay type: in vivo, rat
- Measurement Conditions: rat, plasma, single dose 1.67 mg/kg
Listed here: items and their measured Vd.
Property Measured: Vd (L/kg)

> print(dat)
                                   molecule  quantitative.readout
1  Cc1c(Cc2ccc(C(F)(F)F)cc2)c(=O)oc2cc(OCCOc3no[n+]([O-])c3S(=O)(=O)c3ccccc3)ccc12 [CY-16S-4A93]                  0.68
2  Cc1c(Cc2ccc(C#N)cc2)c(=O)oc2cc(OCCOc3no[n+]([O-])c3S(=O)(=O)c3ccccc3)ccc12 [CY-16S-4A43]                  2.03
